IC50 overview
- target: 3-oxoacyl-[acyl-carrier-protein] synthase 3 (Escherichia coli, UniProt C3TDZ2)
- Sequence (C3TDZ2 whole entry): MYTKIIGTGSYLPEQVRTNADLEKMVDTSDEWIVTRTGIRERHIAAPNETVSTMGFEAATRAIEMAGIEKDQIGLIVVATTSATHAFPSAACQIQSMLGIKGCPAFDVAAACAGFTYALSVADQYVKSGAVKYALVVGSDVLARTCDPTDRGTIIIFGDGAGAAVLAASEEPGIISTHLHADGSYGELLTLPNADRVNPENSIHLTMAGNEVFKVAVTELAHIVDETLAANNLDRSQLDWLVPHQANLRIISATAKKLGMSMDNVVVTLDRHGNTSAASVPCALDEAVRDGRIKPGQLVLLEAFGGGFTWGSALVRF
- experimental_details: Inhibition of Escherichia coli KAS3 after 1 min assessed as incorporation of 3H signal in the final product by liquid scintillation counter
- stated_conditions: in the assay text read “after 25 mins” for “after 1 min”
Answer format: numeric, µM implied, no suffix.

Below: 3 molecules and their reported IC50.
{"molecule": "CC(CNC(=O)c1cc(Br)ccc1O)/N=C/c1cc(F)ccc1O (centres undefined)", "IC50 / µM": 56}
{"molecule": "CC(CNC(=O)c1ccccc1O)/N=C/c1c(O)ccc2ccccc12 (centres undefined)", "IC50 / µM": 56.7}
{"molecule": "Cc1ccc(C(=O)NCC(C)/N=C/c2cc(Cl)cc(Cl)c2O)c(O)c1 (centres undefined)", "IC50 / µM": 4.59}

// next entry
Task: Please look up its IC50: Cc1ccc(C(=O)NCC(C)/N=C/c2cc(I)cc(I)c2O)c(O)c1 (centres undefined)
Output: 26.5

Data origin, for the record: ChEMBL document CHEMBL1156175
